# measured on: human activated kallikrein enzyme (plasma kallikrein) (Homo sapiens (Human), UniProt P03952)
# Sequence (P03952 391-638): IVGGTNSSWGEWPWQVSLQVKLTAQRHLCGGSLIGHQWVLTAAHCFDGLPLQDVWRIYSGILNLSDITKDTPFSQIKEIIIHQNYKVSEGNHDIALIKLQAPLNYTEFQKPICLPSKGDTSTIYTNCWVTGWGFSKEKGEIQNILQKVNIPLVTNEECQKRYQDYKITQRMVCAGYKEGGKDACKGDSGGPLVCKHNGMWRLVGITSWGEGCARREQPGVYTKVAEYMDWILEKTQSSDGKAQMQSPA
# Sequence (P03952 20-390 partner): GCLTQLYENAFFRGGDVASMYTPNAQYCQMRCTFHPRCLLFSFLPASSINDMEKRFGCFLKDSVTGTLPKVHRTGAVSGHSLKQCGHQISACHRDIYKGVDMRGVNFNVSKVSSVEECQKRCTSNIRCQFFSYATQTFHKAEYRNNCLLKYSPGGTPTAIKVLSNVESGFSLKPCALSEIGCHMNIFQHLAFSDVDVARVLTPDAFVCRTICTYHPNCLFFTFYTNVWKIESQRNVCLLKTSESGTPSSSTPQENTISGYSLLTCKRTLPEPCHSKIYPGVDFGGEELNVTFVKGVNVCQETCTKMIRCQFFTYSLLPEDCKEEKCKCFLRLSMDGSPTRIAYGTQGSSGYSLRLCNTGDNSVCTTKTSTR
# assay overview: Inhibition of human activated plasma kallikrein, fluorogenic peptide substrate assay, 500 pM enzyme format
# Type: biochemical
# test context: 500 pM activated kallikrein enzyme, 300 uM Pro-Phe-Arg-7-amido-4-methylcoumarin substrate, 30 min preincubation, 10 min at RT; read-out: Primary Dose Response Assay: Average EC50
Give measured EC50 for each item. Keep answers brief.

Please review the entries below; each comes with its answer.
* O=C(NCc1ncn2ccc(Cl)cc12)c1cnn(Cc2cn3cc(C4CC4)cc(CN4CCOCC4)c3n2)c1 | < 1 nM
* Cc1c(Cl)ccc2nc(Cn3cc(C(=O)NCc4ncn5ccc(Cl)cc45)cn3)cn12 | 1 to 10 nM
* O=C(NCc1ncn2ccc(Cl)cc12)c1cnn(Cc2cn3nc(C4CC4)ccc3n2)c1 | < 1 nM

Hi, could you look up EC50 for each item in my list?
1. COC(=O)Cc1cc(C2CC2)cn2cc(Cn3cc(C(=O)NCc4ncn5ccc(Cl)cc45)cn3)nc12
2. CCOC(=O)C1CC1c1nn(Cc2cn3cc(C4CC4)ccc3n2)cc1C(=O)NCc1ncn2ccc(Cl)cc12 (stereo not shown)
3. O=C(NCc1ncn2ccc(Cl)cc12)c1cnn(Cc2cn3cccc(C4(CO)CC4)c3n2)c1
4. O=C(NCc1ncn2ccc(Cl)cc12)c1cnn(Cc2cn3cc(C(F)(F)F)ccc3n2)c1

Given back:
["< 1 nM", "1 to 10 nM", "< 1 nM", "1 to 10 nM"]

----------
# measured on: human activated kallikrein enzyme (plasma kallikrein) (Homo sapiens (Human), UniProt P03952)
# assay overview: Inhibition of human activated plasma kallikrein, fluorogenic peptide substrate assay, 500 pM enzyme format
# Type: biochemical
# test context: 500 pM activated kallikrein enzyme, 300 uM Pro-Phe-Arg-7-amido-4-methylcoumarin substrate, 30 min preincubation, 10 min at RT; read-out: Primary Dose Response Assay: Average EC50
Give measured EC50 for each item. Keep answers brief.

Please review the entries below; each comes with its answer.
• O=C(O)CC(c1cn2cc(C3CC3)ccc2n1)n1cc(C(=O)NCc2ncn3ccc(Cl)c(F)c23)nn1 (stereo not shown) [Example I-227b] = 100 to 2000 nM
• CC(C)(O)c1cc(C2CC2)cn2cc(Cn3cc(C(=O)NCc4ncn5ccc(Cl)cc45)cn3)nc12 [Example I-104b] = < 1 nM
• O=C(NCc1ncn2ccc(Br)cc12)c1cnn(Cc2cn3cc(C4CC4)cnc3n2)c1 = < 1 nM
• O=C(NCc1ncn2ccc(Cl)cc12)c1cnc(Cc2cn3cc(C4CC4)ccc3n2)s1 = 1 to 10 nM
• O=C(NCc1ncn2ccc(Cl)c(F)c12)c1cn(Cc2cc3cc(C4CC4)cc(C(F)(F)F)n3n2)nn1 = < 1 nM
• CCOC(=O)c1nc(C(=O)NCc2ncn3ccc(Cl)c(F)c23)cn1Cc1cn2cc(C3CC3)ccc2n1 = < 1 nM

Proceed to the following item.
Asked: Quick one: EC50 for CCOc1c(Cl)ccn2cnc(CNC(=O)c3cn(Cc4cn5cc(C6CC6)cc(CC6(C(=O)O)CCCC6)c5n4)nn3)c12 [Example I-221c] ?
Given back: 10 to 100 nM

----------
# measured on: human activated kallikrein enzyme (plasma kallikrein) (Homo sapiens (Human), UniProt P03952)
# assay overview: Inhibition of human activated plasma kallikrein, fluorogenic peptide substrate assay, 500 pM enzyme format
# Type: biochemical
# test context: 500 pM activated kallikrein enzyme, 300 uM Pro-Phe-Arg-7-amido-4-methylcoumarin substrate, 30 min preincubation, 10 min at RT; read-out: Primary Dose Response Assay: Average EC50
Give measured EC50 for each item. Keep answers brief.

Please review the entries below; each comes with its answer.
• Cc1cc2nc(Cn3cc(C(=O)NCc4ncn5ccc(Cl)cc45)cn3)cn2cc1Br = 1 to 10 nM
• O=C(O)Cc1cc(C2CC2)cn2cc(Cn3cc(C(=O)NCc4ncn5ccc(Cl)c(F)c45)nn3)nc12 [Example I-157b] = < 1 nM
• O=C(NCc1ncn2ccc(Cl)c(F)c12)c1nnc(Cc2cn3cc(C4CC4)ccc3n2)o1 = < 1 nM
• NCc1cc(C2CC2)cn2cc(Cn3cc(C(=O)NCc4ncn5ccc(Cl)c(F)c45)nn3)nc12 = < 1 nM

Hi, could you look up EC50 for each item in my list?
1. O=C(NCc1ncn2ccc(Cl)c(F)c12)c1cnn(Cc2cn3ccccc3n2)c1
2. NCCOCc1cc(C2CC2)cn2cc(Cn3cc(C(=O)NCc4ncn5ccc(Cl)c(F)c45)nn3)nc12
3. Cc1ncn(-c2cc(C3CC3)cn3cc(Cn4cc(C(=O)NCc5ncn6ccc(Cl)c(F)c56)nn4)nc23)n1
4. O=C(NCc1ncn2ccc(Cl)c(F)c12)c1cnn(Cc2ccc3nccnc3c2)c1
5. O=C(NCc1ncn2ccc(Cl)cc12)c1cnn(Cc2cc3ncc(C4CC4)cc3[nH]2)c1

Given back:
10 to 100 nM
< 1 nM
< 1 nM
10 to 100 nM
10 to 100 nM

Hi, could you look up EC50 for each item in my list?
1. N#Cc1cc(C2CC2)cn2cc(Cn3cc(C(=O)NCc4ncn5ccc(Br)c(F)c45)nn3)nc12
2. O=C(NCc1ncn2ccc(Cl)c(F)c12)c1cn(Cc2cc3cc(C4CC4)cc(N4CCCC4=O)n3n2)nn1
3. CC(C)(Oc1cc(C2CC2)cn2cc(Cn3cc(C(=O)NCc4ncn5ccc(Cl)c(F)c45)nn3)nc12)C(=O)O
4. O=C(NCc1ncn2ccc(Br)c(F)c12)c1nnc(Cc2cn3nc(C4CC4)ccc3n2)o1
5. O=C(NCc1ncn2ccc(Cl)c(F)c12)c1cn(Cc2cc3cc(C4CC4)ccc3[nH]2)nn1
6. O=C(NCc1ncn2ccc(Cl)c(F)c12)c1cn(Cc2cn3cc(C4CC4)cc(-n4cccn4)c3n2)nn1

Given back:
1: < 1 nM; 2: < 1 nM; 3: < 1 nM; 4: < 1 nM; 5: 10 to 100 nM; 6: < 1 nM
